assay.details: Inhibition of HIV1 RES056 reverse transcriptase K103N/Y181C double mutant infected in human MT4 cells assessed as protection against virus-induced cytopathic effect measured at 5 days post infection by MTT assay
readout.type: EC50

1. N#Cc1ccc(Nc2nccc(OCc3cc(F)ccc3Br)n2)cc1 > 190 µM
2. N#Cc1ccc(Nc2nccc(OCc3cccc4ccccc34)n2)cc1 > 7.7 µM
3. COc1cccc(COc2ccnc(Nc3ccc(C#N)cc3)n2)c1 > 118 µM
4. COc1ccccc1COc1ccnc(Nc2ccc(C#N)cc2)n1 > 8.9 µM
5. N#Cc1ccc(Nc2nccc(NCc3ccccn3)n2)cc1 > 8.5 µM
6. N#Cc1ccc(Nc2nccc(OCc3ccccc3C#N)n2)cc1 > 113 µM
7. N#Cc1ccc(Nc2nccc(OCc3ccc(Br)cc3)n2)cc1 > 16 µM
8. N#Cc1ccc(Nc2nccc(OCc3ccc4ccccc4c3)n2)cc1 > 212 µM
9. CN(C)c1ccnc(Nc2ccc(C#N)cc2)n1 > 34 µM
10. Cc1cc(C)nc(Sc2ccnc(Nc3ccc(C#N)cc3)n2)n1 > 224 µM
11. N#Cc1ccc(Nc2nccc(OCc3ccccc3)n2)cc1 > 13 µM
12. N#Cc1ccc(Nc2nccc(OCc3ccccc3F)n2)cc1 > 151 µM
13. COc1cc(COc2ccnc(Nc3ccc(C#N)cc3)n2)cc(OC)c1 > 44 µM
14. N#Cc1ccc(Nc2nccc(OCc3cccc(Br)c3)n2)cc1 > 221 µM
15. Cc1ccccc1COc1ccnc(Nc2ccc(C#N)cc2)n1 > 12 µM
16. N#Cc1ccc(Nc2nccc(OCc3ccc(Cl)cc3)n2)cc1 > 156 µM
17. N#Cc1ccc(Nc2nccc(OCc3cccc(C#N)c3)n2)cc1 > 4.1 µM
18. N#Cc1ccc(COc2ccnc(Nc3ccc(C#N)cc3)n2)cc1 > 209 µM
19. N#Cc1ccc(Nc2nccc(OCc3cccc(F)c3)n2)cc1 > 105 µM
20. N#Cc1ccc(Nc2nccc(OCc3cccc(C(F)(F)F)c3)n2)cc1 > 118 µM
21. N#Cc1ccc(Nc2nccc(OCc3ccc(Br)cc3F)n2)cc1 > 141 µM
22. N#Cc1ccc(Nc2nccc(OCc3ccc(F)cc3)n2)cc1 > 81 µM
23. Cc1cccc(COc2ccnc(Nc3ccc(C#N)cc3)n2)c1 > 30 µM
24. COc1ccc(COc2ccnc(Nc3ccc(C#N)cc3)n2)cc1 > 102 µM
